- System: PC3
- run-description: Cellular proliferation assay (Alamar blue), PC3
- Type: cell-based
- reported-conditions: Homo sapiens, PC-3, PC-3 cells; 10% FCS; 72 h with compound; Alamar blue 24 h; read-out: pIC50 PC-3 (converted)
- Method: Cellular proliferation of these compounds was tested on a panel of different cell lines in the presence of 10% FCS serum (37° C. and 5% (v/v) CO2). In a first step these cells were seeded and incubated for 24 hours in the absence of compound. In the second step the cells were incubated for 72 hours with the compounds to be tested for 72 hours. The viable cell number was finally assessed in a standard Alamar blue cell viability assay. […]
reported-metric: IC50 (µM)

entry-smiles: COCCN(CCOc1ccc2cc1OCC(=O)N(C)CCCN(C)Cc1c[nH]c3ncnc(c13)N2)C(C)C
endpoint-unit: µM
IC50: 1.58
//
entry-smiles: CCOCCCOc1ccc2cc1OCC(=O)N(C)CCCN(C)Cc1c[nH]c3ncnc(c13)N2
endpoint-unit: µM
IC50: 5.01
//
entry-smiles: CCN(CCOC)CCOc1ccc2cc1OCC(=O)N(C)CCCN(C)Cc1c[nH]c3ncnc(c13)N2
endpoint-unit: µM
IC50: 3.16

[I] CN1CCN(c2ccc3cc2OCC(=O)N(C)CCCN(C)Cc2c[nH]c4ncnc(c24)N3)CC1
[II] CN1CCCN(C)C(=O)COc2cc(ccc2NC(=O)NC2CCCC2)Nc2ncnc3[nH]cc(c23)C1
Recorded IC50 values differ for I and II ; which one is higher? Your answer should be the label of the entry you select.
II
(II: 7.94 µM, I: 2.51 µM)

----------
- Tested on: A2780
- run-description: Cellular proliferation assay (Alamar blue), A2780
- Type: cell-based
- reported-conditions: Homo sapiens, A2780, A2780 cells; 10% FCS; 72 h with compound; Alamar blue 24 h; read-out: pIC50 A2780 (converted)
reported-metric: IC50 (µM)

[P] CN1CCCN(C)C(=O)COc2cc(ccc2OCCNc2nccs2)Nc2ncnc3[nH]cc(c23)C1 [Compound 156]
[Q] CN1CCCN(C)C(=O)COc2cc(ccc2OCC(=O)N2CCOCC2)Nc2ncnc3[nH]cc(c23)C1 [Compound 117]
Of P and Q , which shows the smaller IC50 value? Your answer should be the label of the entry you select.
P
(P: 0.501 µM, Q: 3.98 µM)

----------
- System: U87-MG
- run-description: Cellular proliferation assay (Alamar blue), U87-MG
- Type: cell-based
- reported-conditions: Homo sapiens, U-87 MG; U87-MG cells; 10% FCS; 72 h with compound; Alamar blue 6 h; read-out: pIC50 U87MG (converted)
- Experimental: Cellular proliferation of these compounds was tested on a panel of different cell lines in the presence of 10% FCS serum (37° C. and 5% (v/v) CO2). In a first step these cells were seeded and incubated for 24 hours in the absence of compound. In the second step the cells were incubated for 72 hours with the compounds to be tested for 72 hours. The viable cell number was finally assessed in a standard Alamar blue cell viability assay. […]
Catalogue of IC50 values

Check out these entries, answers already filled in.
entry-smiles: O=C1CCCCOc2cccc(c2)Nc2ncnc3[nH]cc(c23)CN2CCN1CC2
IC50: > 10 µM

entry-smiles: COc1ccc(NC(=O)Nc2ccc3cc2OCC(=O)N(C)CCCN(C)Cc2c[nH]c4ncnc(c24)N3)cc1
IC50: 2 µM

entry-smiles: COCCOc1ccc2cc1OCC(=O)N(C)CCCNCc1c[nH]c3ncnc(c13)N2
IC50: > 10 µM

// next entry
Report IC50 for "COCCN1CC(=O)N(C)CCCc2c[nH]c3ncnc(c23)Nc2cc(c(OC)c(OC)c2)C1" please.
> 10 µM

----------
- Tested on: U87-MG
- run-description: Cellular proliferation assay (Alamar blue), U87-MG
- Assay type: cell-based
- reported-conditions: Homo sapiens, U-87 MG; U87-MG cells; 10% FCS; 72 h with compound; Alamar blue 6 h; read-out: pIC50 U87MG (converted)
reported-metric: IC50 (nM)

[I] CN1CCCN(C)C(=O)COc2cc(ccc2OCCOc2cc(C(F)(F)F)ccn2)Nc2ncnc3[nH]cc(c23)C1
[II] CN1CCCN(C)C(=O)COc2cc(ccc2NC(=O)NC2CCCC2)Nc2ncnc3[nH]cc(c23)C1
Recorded IC50 values differ for I and II ; which one is higher? Your answer should be the label of the entry you select.
II

----------
- target-system: PLK4 (h) (Homo sapiens, UniProt O00444)
- Sequence (O00444 1-970): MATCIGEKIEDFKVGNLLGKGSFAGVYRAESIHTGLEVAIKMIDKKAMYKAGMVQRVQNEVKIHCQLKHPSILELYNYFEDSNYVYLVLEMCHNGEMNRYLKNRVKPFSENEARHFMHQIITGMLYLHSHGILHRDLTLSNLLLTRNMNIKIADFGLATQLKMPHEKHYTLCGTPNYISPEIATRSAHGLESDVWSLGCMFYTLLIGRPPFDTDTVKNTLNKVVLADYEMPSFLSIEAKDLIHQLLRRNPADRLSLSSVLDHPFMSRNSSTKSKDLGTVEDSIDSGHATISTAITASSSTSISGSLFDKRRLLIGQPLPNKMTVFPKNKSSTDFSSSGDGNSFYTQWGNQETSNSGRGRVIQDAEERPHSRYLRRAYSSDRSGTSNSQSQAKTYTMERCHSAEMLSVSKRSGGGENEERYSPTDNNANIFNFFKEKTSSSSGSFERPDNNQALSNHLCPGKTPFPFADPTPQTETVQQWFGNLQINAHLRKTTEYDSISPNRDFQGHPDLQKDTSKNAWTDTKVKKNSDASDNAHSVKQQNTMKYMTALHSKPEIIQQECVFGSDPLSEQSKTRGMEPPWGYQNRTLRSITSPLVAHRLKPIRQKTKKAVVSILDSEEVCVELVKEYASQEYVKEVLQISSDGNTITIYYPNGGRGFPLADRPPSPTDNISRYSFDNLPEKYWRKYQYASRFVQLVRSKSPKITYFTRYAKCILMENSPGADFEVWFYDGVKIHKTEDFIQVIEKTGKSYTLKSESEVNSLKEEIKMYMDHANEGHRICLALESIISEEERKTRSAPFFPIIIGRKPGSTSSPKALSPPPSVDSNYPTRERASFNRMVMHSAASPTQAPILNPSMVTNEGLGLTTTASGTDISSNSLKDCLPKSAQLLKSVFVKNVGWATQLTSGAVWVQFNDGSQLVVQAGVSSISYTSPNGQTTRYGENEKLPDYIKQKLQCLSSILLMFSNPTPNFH
- run-description: PLK-4 human kinase scintillation proximity assay (SPA)
- Format: biochemical
- reported-conditions: 1 μM ATP, 60 minutes at r.t., read-out: PLK4 pIC50 (converted)
reported-metric: IC50 (µM)

Check out these entries, answers already filled in.
molecule: CCOCCCOc1ccc2cc1OCC(=O)N(C)CCCN(C)Cc1c[nH]c3ncnc(c13)N2 [Compound 130]
IC50, µM: 0.0398
//
molecule: O=C1CCCCOc2cc(ccc2Cl)Nc2ncnc3[nH]cc(c23)CN2CCN1CC2 [Compound 104]
IC50, µM: 2
//
molecule: CN1CCCN(C)C(=O)COc2cc(ccc2NC(=O)Nc2cccc(Cl)c2)Nc2ncnc3[nH]cc(c23)C1 [Compound 67]
IC50, µM: 0.0631

[P] COc1ccc2cc1OCCCNC(=O)CN(C)Cc1c[nH]c3ncnc(c13)N2 [Compound 6]
[Q] CN1CC(=O)NCCOc2cccc(c2)Nc2ncnc3[nH]cc(c23)C1 [Compound 23]
Recorded IC50 values differ for P and Q ; which one is higher? Your answer should be the label of the entry you select.
Q

----------
- Tested on: HCT-116
- run-description: Cellular proliferation assay (Alamar blue), HCT-116
- Format: cell-based
- reported-conditions: Homo sapiens; HCT-116 cells; 10% FCS; 72 h with compound; Alamar blue 4 h; read-out: pIC50 HCT-116 (converted)
reported-metric: IC50 (µM)

Check out these entries, answers already filled in.
molecule: CN1CCCN(C)C(=O)COc2cc(ccc2N2CCOCC2)Nc2ncnc3[nH]cc(c23)C1 [Compound 85]
endpoint-unit: µM
IC50: 2

molecule: COc1ccc2cc1OCC(=O)N(C(C)C)CCCN(C)Cc1c[nH]c3ncnc(c13)N2 [Compound 12]
endpoint-unit: µM
IC50: 7.94

molecule: CC(C)NC(=O)Nc1ccc2cc1OCC(=O)N(C)CCCN(C)Cc1c[nH]c3ncnc(c13)N2 [Compound 122]
endpoint-unit: µM
IC50: 6.31

molecule: COc1ccc2cc1OCCCNC(=O)CN(C)Cc1c[nH]c3ncnc(c13)N2 [Compound 6]
endpoint-unit: µM
IC50: 1.26

molecule: CCOCCOc1ccc2cc1OCC(=O)N(C)CCCN(C)Cc1c[nH]c3ncnc(c13)N2 [Compound 70]
endpoint-unit: µM
IC50: 0.1

[1] CCN(CCOC)CCOc1ccc2cc1OCC(=O)N(C)CCCN(C)Cc1c[nH]c3ncnc(c13)N2 [Compound 77]
[2] CCOCCCOc1ccc2cc1OCC(=O)N(C)CCCN(C)Cc1c[nH]c3ncnc(c13)N2 [Compound 130]
Of 1 and 2 , which shows the smaller IC50 value? Your answer should be the label of the entry you select.
2
(2: 0.631 µM, 1: 3.16 µM)

Recorded values, source patent US8318731B2.
